For each entry below, report its Percent Cytotoxicity value.
System: PTC (colon)
Test: MTT cytotoxicity assay, PTC cells
Type: cell-based, human
Conditions: human, 48 hours, 100 nM
Starred links: 1 amine or outer side, 2 acyl side, 3 side chain; linkers in the order of their positions; H or OH if unused. Non-standard residues stand in square brackets, D forms with d. Residues, ends and D or L forms follow the SMILES beside them. 2Furoyl(5-aminomethyl) = O=C(c1ccc(CN[*:1])o1)[*:2]; X1 = O=C(C1CCC(CN[*:1])O1)[*:2]
Give the figure together with its unit, number first.

* CSCC[C@H](NC(=O)[C@@H](N)CC(C)C)C(=O)NCc1ccc(C(=O)N[C@@H](Cc2ccc(O)cc2)C(=O)N[C@@H](CC(C)C)C(=O)N[C@@H](CCCCN)C(=O)O)o1 [SEQ ID NO: 18, Leu-Met-Saa1-Tyr-Leu-Lys] (H-LM[2Furoyl(5-aminomethyl)]YLK-OH) | 23.9 ± 2.9%
* CSCC[C@H](NC(=O)[C@@H](N)CC(C)C)C(=O)N[C@@H](Cc1ccc(O)cc1)C(=O)NCC1CCC(C(=O)N[C@@H](Cc2ccc(O)cc2)C(=O)N[C@@H](CC(C)C)C(=O)N[C@@H](CCCCN)C(=O)O)O1 (stereo partly drawn) [SEQ ID NO: 12, Leu-Met-Tyr-Saa3-Tyr-Leu-Lys] (H-LMY[X1]YLK-OH) | 10.8 ± 2.0%
* CSCC[C@H](N)C(=O)NCc1ccc(C(=O)N[C@@H](Cc2ccc(O)cc2)C(=O)N[C@@H](CC(C)C)C(=O)O)o1 [SEQ ID NO: 14, Met-Saa1-Tyr-Leu] | 21.8 ± 1.0%

Now, please, on to the next molecule.
Prompt: Specify measured Percent Cytotoxicity for CSCC[C@H](N)C(=O)NC[C@H]1CC[C@@H](C(=O)N[C@@H](Cc2ccc(O)cc2)C(=O)N[C@@H](CC(C)C)C(=O)O)O1 [SEQ ID NO: 17, Met-Saa4-Tyr-Leu] .
Completion: 10.4 ± 0.6%

* * *

System: KB (oral)
Assay: MTT cytotoxicity assay, KB cells
Format: cell-based, human
Settings: human, 48 hours, 1 nM
Starred links: 1 amine or outer side, 2 acyl side, 3 side chain; linkers in the order of their positions; H or OH if unused. Non-standard residues stand in square brackets, D forms with d. Residues, ends and D or L forms follow the SMILES beside them. 2Furoyl(5-aminomethyl) = O=C(c1ccc(CN[*:1])o1)[*:2]; X2 = O=C([C@@H]1CC[C@H](CN[*:1])O1)[*:2]; X1 = O=C(C1CCC(CN[*:1])O1)[*:2]
For each entry below, report its Percent Cytotoxicity value.
Numbers only, in %.

Known Percent Cytotoxicity results, listed for orientation:
* CSCC[C@H](NC(=O)[C@@H](N)CC(C)C)C(=O)N[C@@H](Cc1ccc(O)cc1)C(=O)NCc1ccc(C(=O)N[C@@H](Cc2ccc(O)cc2)C(=O)N[C@@H](CC(C)C)C(=O)N[C@@H](CCCCN)C(=O)O)o1 [SEQ ID NO: 10, Leu-Met-Tyr-Saa1-Tyr-Leu-Lys] (H-LMY[2Furoyl(5-aminomethyl)]YLK-OH) | 32.0
* CSCC[C@H](NC(=O)[C@@H](N)CC(C)C)C(=O)N[C@@H](Cc1ccc(O)cc1)C(=O)NC[C@H]1CC[C@@H](C(=O)N[C@@H](Cc2ccc(O)cc2)C(=O)N[C@@H](CC(C)C)C(=O)N[C@@H](CCCCN)C(=O)O)O1 [SEQ ID NO: 13, Leu-Met-Tyr-Saa4-Tyr-Leu-Lys] (H-LMY[X2]YLK-OH) | 30.0
* CSCC[C@H](NC(=O)[C@@H](N)CC(C)C)C(=O)N[C@@H](Cc1ccc(O)cc1)C(=O)NC[C@H]1O[C@H](C(=O)N[C@H](C(=O)N[C@@H](Cc2ccc(O)cc2)C(=O)N[C@@H](CC(C)C)C(=O)N[C@@H](CCCCN)C(=O)O)[C@@H](C)O)[C@@H](OCc2ccccc2)[C@@H]1OCc1ccccc1 [SEQ ID NO: 3, Leu-Met-Tyr-Saa2-Thr-Tyr-Leu-Lys] | 12.9
* CSCC[C@H](N)C(=O)NCc1ccc(C(=O)N[C@@H](Cc2ccc(O)cc2)C(=O)N[C@@H](CC(C)C)C(=O)O)o1 [SEQ ID NO: 14, Met-Saa1-Tyr-Leu] | 14.5

State recorded Percent Cytotoxicity for all listed molecules.
1. CSCC[C@H](NC(=O)[C@@H](N)CC(C)C)C(=O)NCc1ccc(C(=O)N[C@@H](Cc2ccc(O)cc2)C(=O)N[C@@H](CC(C)C)C(=O)N[C@@H](CCCCN)C(=O)O)o1 [SEQ ID NO: 18, Leu-Met-Saa1-Tyr-Leu-Lys] (H-LM[2Furoyl(5-aminomethyl)]YLK-OH)
2. CSCC[C@H](N)C(=O)NCC1CCC(C(=O)N[C@@H](Cc2ccc(O)cc2)C(=O)N[C@@H](CC(C)C)C(=O)O)O1 (stereo partly shown) [SEQ ID NO: 16, Met-Saa3-Tyr-Leu]
3. CSCC[C@H](NC(=O)[C@@H](N)CC(C)C)C(=O)N[C@@H](Cc1ccc(O)cc1)C(=O)NCC1CCC(C(=O)N[C@@H](Cc2ccc(O)cc2)C(=O)N[C@@H](CC(C)C)C(=O)N[C@@H](CCCCN)C(=O)O)O1 (stereo partly drawn) [SEQ ID NO: 12, Leu-Met-Tyr-Saa3-Tyr-Leu-Lys] (H-LMY[X1]YLK-OH)

Completion:
1. 15.9
2. 9.3
3. 32.9
